Reference source for all entries: ChEMBL document CHEMBL3259692

test system: Streptococcus mutans; assay: Antimicrobial activity against Streptococcus mutans 240 assessed as biofilm formation at 100 uM after 48 hrs by crystal violet staining-based spectrophotometry relative to control; type: functional
Activity calls are given as the source filed them. The calls are words filed in the database; no cut-off is given here.

| input-smiles | tested-on | Activity |
| --- | --- | --- |
| Cl.Nc1nc(-c2cccc(NC(=O)c3cc4cc(O)ccc4[nH]3)c2)c[nH]1 | Streptococcus mutans | 53.4% |
| Cl.Nc1nc(-c2ccc(NC(=O)c3cc4ccccc4[nH]3)cc2)c[nH]1 | Streptococcus mutans | 8.1% |
| CNc1nc(-c2cccc(NC(=O)c3cc4ccccc4[nH]3)c2)c[nH]1.Cl | Streptococcus mutans | 8.8% |
| CC(C)(C)OC(=O)n1cc(-c2cccc(NC(=O)c3cc4cc(O)ccc4[nH]3)c2)nc1N | Streptococcus mutans | 57.6% |
| CC(C)(C)OC(=O)n1cc(-c2cccc(NC(=O)c3cc4cc(OC(F)(F)F)ccc4[nH]3)c2)nc1N | Streptococcus mutans | inactive |
| CC(C)(C)OC(=O)n1cc(-c2cccc(NC(=O)c3cc4cc(N)ccc4[nH]3)c2)nc1N | Streptococcus mutans | inactive |
| Cl.Nc1nc(-c2cccc(NC(=O)c3cc4sccc4[nH]3)c2)c[nH]1 | Streptococcus mutans | 10.1% |
| Cl.Nc1nc(-c2cccc(NC(=O)c3cc4ccccc4[nH]3)c2)c[nH]1 | Streptococcus mutans | 14.2% |
| Cl.Nc1nc(-c2cccc(NC(=O)c3cc4cc(OCc5ccccc5)ccc4[nH]3)c2)c[nH]1 | Streptococcus mutans | 8.2% |
| Nc1nc(/C=C/CNC(=O)c2cc3ccccc3[nH]2)c[nH]1 | Streptococcus mutans | inactive |
| Cl.Nc1nc(-c2cccc(NC(=O)c3cc4cc(Cl)ccc4[nH]3)c2)c[nH]1 | Streptococcus mutans | 6.8% |

###

system: Staphylococcus aureus; experiment: Antimicrobial activity against methicillin-resistant Staphylococcus aureus 25762 assessed as biofilm formation at 100 uM after 48 hrs by crystal violet staining-based spectrophotometry relative to control; format: functional
Calls of active or inactive are those of the source. No cut-off for these calls is given here.

| input-smiles | Activity |
| --- | --- |
| CNc1nc(-c2cccc(NC(=O)c3cc4ccccc4[nH]3)c2)c[nH]1.Cl | 19.1% |
| Cl.Nc1nc(-c2cccc(NC(=O)c3c[nH]c4ccccc34)c2)c[nH]1 | inactive |
| COc1ccc2[nH]c(C(=O)Nc3cccc(-c4c[nH]c(N)n4)c3)cc2c1.Cl | inactive |
| Cl.Nc1nc(-c2cccc(NC(=O)c3cc4cc(O)ccc4[nH]3)c2)c[nH]1 | inactive |
| CC(C)(C)OC(=O)n1cc(-c2cccc(NC(=O)c3cc4ccccc4[nH]3)c2)nc1N | inactive |
| Nc1ccc2[nH]c(C(=O)Nc3cccc(-c4c[nH]c(N)n4)c3)cc2c1 | inactive |
| Cl.Nc1nc(-c2cccc(NC(=O)c3cc4cc([N+](=O)[O-])ccc4[nH]3)c2)c[nH]1 | inactive |
| Cl.Nc1nc(-c2cccc(NC(=O)c3cc4ccccc4[nH]3)c2)c[nH]1 | 13.9% |
| Cl.Nc1nc(-c2cccc(NC(=O)c3cc4cc(OCc5ccccc5)ccc4[nH]3)c2)c[nH]1 | 31.4% |
| Nc1nc(/C=C/CNC(=O)c2cc3ccccc3[nH]2)c[nH]1 | inactive |
| Nc1nc(/C=C/CNC(=O)c2cc3cc(F)ccc3[nH]2)c[nH]1 | 8.1% |
| Cl.Nc1nc(-c2ccc(NC(=O)c3cc4ccccc4[nH]3)cc2)c[nH]1 | 11.1% |
| Cl.Nc1nc(-c2ccc(NC(=O)c3cc4cc(Cl)ccc4[nH]3)cc2)c[nH]1 | inactive |
| Nc1ncc(/C=C/CNC(=O)c2cc(Br)c(Br)[nH]2)[nH]1 | inactive |
| Cl.Nc1nc(-c2ccc(NC(=O)c3cc4cc(F)ccc4[nH]3)cc2)c[nH]1 | 10.9% |
| CC(C)(C)OC(=O)n1cc(-c2cccc(NC(=O)c3cc4cc(O)ccc4[nH]3)c2)nc1N | inactive |
| CC(C)(C)OC(=O)n1cc(-c2cccc(NC(=O)c3cc4cc(N)ccc4[nH]3)c2)nc1N | inactive |
| CC(C)(C)OC(=O)n1cc(-c2cccc(NC(=O)c3cc4cc(OC(F)(F)F)ccc4[nH]3)c2)nc1N | inactive |
| Cl.Nc1nc(-c2cccc(NC(=O)c3cc4sccc4[nH]3)c2)c[nH]1 | 23% |
| Cl.Nc1nc(-c2cccc(NC(=O)c3cc4cc(F)ccc4[nH]3)c2)c[nH]1 | inactive |
| Cl.Nc1nc(-c2cccc(NC(=O)c3cc4cc(Cl)ccc4[nH]3)c2)c[nH]1 | 44% |
